Molecular target: T1, recombinant human DLL4 (C-terminally His-tagged extracellular domain, R&D Systems) (human, UniProt Q9NR61 25-522, biotinylated in the competition ELISA)
T1 construct: also called rhDLL4; hDLL4
T1 sequence (Q9NR61 25-522): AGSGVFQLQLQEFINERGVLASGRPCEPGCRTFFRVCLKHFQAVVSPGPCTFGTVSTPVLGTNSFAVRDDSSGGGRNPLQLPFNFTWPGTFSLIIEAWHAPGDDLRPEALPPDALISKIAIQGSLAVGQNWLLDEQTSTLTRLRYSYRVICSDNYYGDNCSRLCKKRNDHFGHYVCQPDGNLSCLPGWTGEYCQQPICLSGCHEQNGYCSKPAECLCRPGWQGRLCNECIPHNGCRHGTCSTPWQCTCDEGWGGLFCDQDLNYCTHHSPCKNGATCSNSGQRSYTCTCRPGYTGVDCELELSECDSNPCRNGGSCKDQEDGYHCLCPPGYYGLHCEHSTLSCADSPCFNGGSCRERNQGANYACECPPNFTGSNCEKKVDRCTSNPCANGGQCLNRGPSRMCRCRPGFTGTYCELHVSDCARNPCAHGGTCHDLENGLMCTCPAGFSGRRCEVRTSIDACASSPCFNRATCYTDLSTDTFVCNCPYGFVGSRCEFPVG
Experiment: SPR (Biacore), rhDLL4
EXPERIMENTAL_ENDPOINT: kon (M⁻¹ s⁻¹)
Provide only the numeric value, understood in M⁻¹ s⁻¹.

Note kon for the binder shown: DLLBII136C07 (VHH, not shown: small tags and cut ends) VHH: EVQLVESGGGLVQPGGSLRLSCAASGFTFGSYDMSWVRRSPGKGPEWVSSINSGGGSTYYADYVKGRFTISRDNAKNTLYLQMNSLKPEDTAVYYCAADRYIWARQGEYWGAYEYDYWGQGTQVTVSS
620000

State its kon: DLLBII130B03 (VHH, not shown: small tags and cut ends) VHH: EVQLVESGGGLVQAGGSLRLSCAASGRTFSSYAMAWYRQAPGKEREYVAAIRWSGGTAYYADSVQGRFTISRDNAKNTVYLQMNSLKPEDTAVYYCANRAPDTRLAPYLYDYWGQGTQVTVSS
220000

Please report kon for the following binder: DLLBII130F06 (VHH, not shown: small tags and cut ends) VHH: EVQLVESGGGLVQAGGSLRLSCAASGRTFSSYAMAWYRQAPGKEREYVAAIRWSGGTAYYADSVQGRFTISRDNAKNTVYLQMNSLKPEDTAVYYCANRAPDTRLAPYEYDYWGQGTQVTVSS
200000
